Molecular target: 14-3-3τ (UniProt P27348)
Sequence (P27348 whole entry): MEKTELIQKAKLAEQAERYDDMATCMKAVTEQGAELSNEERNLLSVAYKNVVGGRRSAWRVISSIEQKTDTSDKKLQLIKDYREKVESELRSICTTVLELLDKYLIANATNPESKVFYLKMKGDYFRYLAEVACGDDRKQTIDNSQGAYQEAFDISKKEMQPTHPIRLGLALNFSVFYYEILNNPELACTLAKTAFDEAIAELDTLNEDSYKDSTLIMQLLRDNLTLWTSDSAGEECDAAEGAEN
Assay: cell-based or functional assay
Exercise: for every item that follows, state its recorded PKA-induced fluorescence change; Chlorazol Black E 5x.
One number for each entry, in fold.

Below are 4 substances. Give each one its PKA-induced fluorescence change; Chlorazol Black E 5x.
1. P3, Ac-GRTDap(Pyr)RRFSYP-amide, serine-phosphorylated by PKA in the assay (peptide)
2. P4, Ac-GRDap(Pyr)GRRFSYP-amide, serine-phosphorylated by PKA in the assay (peptide)
3. P2, Ac-GRTGRRDap(Pyr)SYP-amide, serine-phosphorylated by PKA in the assay (peptide)
4. phosphorylated P5 peptide AcDap(Pyr)RTGRRFS(PO3 2-)YP-amide

Reply |
1.79
4.01
2.26
5.62

###

Answer each item with its documented PKA-induced fluorescence change; Eriochrome Black T 10x.
Molecular target: 14-3-3τ (UniProt P27348)
Experiment: cell-based or functional assay
One number for each entry, in fold.

Answered examples (3):
> print(dat)
                                  substance  result.number
1  phosphorylated P5 peptide AcDap(Pyr)RTGRRFS(PO3 2-)YP-amide           1.73
2  P2, Ac-GRTGRRDap(Pyr)SYP-amide, serine-phosphorylated by PKA in the assay (peptide)           1.42
3  P4, Ac-GRDap(Pyr)GRRFSYP-amide, serine-phosphorylated by PKA in the assay (peptide)           1.12

Okay, now this substance:
Ask | Which PKA-induced fluorescence change; Eriochrome Black T 10x is reported for this substance? P3, Ac-GRTDap(Pyr)RRFSYP-amide, serine-phosphorylated by PKA in the assay (peptide)
Reply | 1.02

###

Biological target: 14-3-3τ (UniProt P27348)
Assay: cell-based or functional assay
Result Type: PKA-induced fluorescence change; Rose Bengal 10x (fold)
Answers are plain numbers, in fold.

For orientation, consider the following solved cases.
> print(dat)
                                  substance     target.or.test.system  result.number
1  P4, Ac-GRDap(Pyr)GRRFSYP-amide, serine-phosphorylated by PKA in the assay (peptide)  14-3-3τ (UniProt P27348)           2.88
2  phosphorylated P5 peptide AcDap(Pyr)RTGRRFS(PO3 2-)YP-amide  14-3-3τ (UniProt P27348)           3.45
3  P3, Ac-GRTDap(Pyr)RRFSYP-amide, serine-phosphorylated by PKA in the assay (peptide)  14-3-3τ (UniProt P27348)           1.98

Okay, next one:
Ask | Value lookup for PKA-induced fluorescence change; Rose Bengal 10x; key = P2, Ac-GRTGRRDap(Pyr)SYP-amide, serine-phosphorylated by PKA in the assay (peptide)
Reply | 2.87

###

Target: 14-3-3τ (UniProt P27348)
Assay: cell-based or functional assay
Please provide measured PKA-induced fluorescence change; Ponceau S 25x for the entries that follow.
Give bare numbers, in fold.

> print(dat)
                                  substance  units.of.measure  result.number
1  P3, Ac-GRTDap(Pyr)RRFSYP-amide, serine-phosphorylated by PKA in the assay (peptide)              fold           2.75

Quick one: give me PKA-induced fluorescence change; Ponceau S 25x for each item below, same order please.
1. P4, Ac-GRDap(Pyr)GRRFSYP-amide, serine-phosphorylated by PKA in the assay (peptide)
2. P2, Ac-GRTGRRDap(Pyr)SYP-amide, serine-phosphorylated by PKA in the assay (peptide)

Reply |
[2.88, 4.61]

Ask | Which PKA-induced fluorescence change; Ponceau S 25x is listed for phosphorylated P5 peptide AcDap(Pyr)RTGRRFS(PO3 2-)YP-amide ?
Reply | 3.23

###

For each record, write down the corresponding PKA-induced fluorescence change; Chlorazol Black E 50x.
Biological target: 14-3-3τ (UniProt P27348)
Experiment: cell-based or functional assay
Answers are plain numbers, in fold.

Please review the entries below; each comes with its answer.
> print(dat)
                                  substance  result.number
1  P2, Ac-GRTGRRDap(Pyr)SYP-amide, serine-phosphorylated by PKA in the assay (peptide)           0.35
2  P4, Ac-GRDap(Pyr)GRRFSYP-amide, serine-phosphorylated by PKA in the assay (peptide)           0.87
3  phosphorylated P5 peptide AcDap(Pyr)RTGRRFS(PO3 2-)YP-amide           0.25

Continue with the substance presented below.
Ask | Sample P3, Ac-GRTDap(Pyr)RRFSYP-amide, serine-phosphorylated by PKA in the assay (peptide) — what was its PKA-induced fluorescence change; Chlorazol Black E 50x?
Reply | 0.25

###

So I've got a bunch of substances here, and I need their PKA-induced fluorescence change; Aniline Blue WS 5x values.
Biological target: 14-3-3τ (UniProt P27348)
Assay: cell-based or functional assay
Answers are plain numbers, in fold.

> print(dat)
                                  substance  units.of.measure  result.number
1  P2, Ac-GRTGRRDap(Pyr)SYP-amide, serine-phosphorylated by PKA in the assay (peptide)              fold           1.85
2  phosphorylated P5 peptide AcDap(Pyr)RTGRRFS(PO3 2-)YP-amide              fold           3.02
3  P4, Ac-GRDap(Pyr)GRRFSYP-amide, serine-phosphorylated by PKA in the assay (peptide)              fold           2.34

Ask | Param readout = PKA-induced fluorescence change; Aniline Blue WS 5x; param system = 14-3-3τ (UniProt P27348); param query = P3, Ac-GRTDap(Pyr)RRFSYP-amide, serine-phosphorylated by PKA in the assay (peptide) ; response: value
Reply | 1.5

###

Target: 14-3-3τ (UniProt P27348)
Test: cell-based or functional assay
Answer each item with its documented PKA-induced fluorescence change; Aniline Blue WS 50x.
Answers are plain numbers, in fold.

> print(dat)
                                  substance  result.number
1  phosphorylated P5 peptide AcDap(Pyr)RTGRRFS(PO3 2-)YP-amide           1.23
2  P4, Ac-GRDap(Pyr)GRRFSYP-amide, serine-phosphorylated by PKA in the assay (peptide)            1.4
3  P3, Ac-GRTDap(Pyr)RRFSYP-amide, serine-phosphorylated by PKA in the assay (peptide)           0.99

Ask | So what does the record say about PKA-induced fluorescence change; Aniline Blue WS 50x for P2, Ac-GRTGRRDap(Pyr)SYP-amide, serine-phosphorylated by PKA in the assay (peptide) ?
Reply | 1.83

###

Biological target: 14-3-3τ (UniProt P27348)
Assay: cell-based or functional assay
What PKA-induced fluorescence change; Tartrazine 50x was measured for each of the following?
Numbers only, in fold.

Known results for substances:
> print(dat)
                                  substance  result.number
1  P4, Ac-GRDap(Pyr)GRRFSYP-amide, serine-phosphorylated by PKA in the assay (peptide)           1.47
2  phosphorylated P5 peptide AcDap(Pyr)RTGRRFS(PO3 2-)YP-amide           2.05
3  P3, Ac-GRTDap(Pyr)RRFSYP-amide, serine-phosphorylated by PKA in the assay (peptide)           1.02

Ask | Query (substance): P2, Ac-GRTGRRDap(Pyr)SYP-amide, serine-phosphorylated by PKA in the assay (peptide) ; field requested: PKA-induced fluorescence change; Tartrazine 50x
Reply | 2.51

###

Task for the reader: assign each of the following substances its reported PKA-induced fluorescence change; Evans Blue 50x.
Target: 14-3-3τ (UniProt P27348)
Assay: cell-based or functional assay
In your response, put the unit directly after the numeric value.

// known answers, use as guide
> print(dat)
                                  substance     result
1  P2, Ac-GRTGRRDap(Pyr)SYP-amide, serine-phosphorylated by PKA in the assay (peptide)  0.94 fold
2  P4, Ac-GRDap(Pyr)GRRFSYP-amide, serine-phosphorylated by PKA in the assay (peptide)  0.91 fold
3  P3, Ac-GRTDap(Pyr)RRFSYP-amide, serine-phosphorylated by PKA in the assay (peptide)  0.99 fold

We next turn to a different substance, shown below.
Ask | State the recorded PKA-induced fluorescence change; Evans Blue 50x for this entry: phosphorylated P5 peptide AcDap(Pyr)RTGRRFS(PO3 2-)YP-amide
Reply | 0.78 fold

###

Molecular target: 14-3-3τ (UniProt P27348)
Assay: cell-based or functional assay
Assignment: determine reported PKA-induced fluorescence change; Rose Bengal 25x for the given substances.
One number for each entry, in fold.

Reference set (3 entries):
> print(dat)
                                  substance     target.or.test.system  result.number
1  P2, Ac-GRTGRRDap(Pyr)SYP-amide, serine-phosphorylated by PKA in the assay (peptide)  14-3-3τ (UniProt P27348)           1.58
2  phosphorylated P5 peptide AcDap(Pyr)RTGRRFS(PO3 2-)YP-amide  14-3-3τ (UniProt P27348)           1.02
3  P4, Ac-GRDap(Pyr)GRRFSYP-amide, serine-phosphorylated by PKA in the assay (peptide)  14-3-3τ (UniProt P27348)            1.1

Please look at the following substance next.
Ask | // PKA-induced fluorescence change; Rose Bengal 25x lookup, key: P3, Ac-GRTDap(Pyr)RRFSYP-amide, serine-phosphorylated by PKA in the assay (peptide)
Reply | 1.13
